# Assay Remarks: growth suppression of PTEN-null HCT116 cells, cell-based, validation, diverse DP compound set (AID 999);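 note: 100% = median luminescence of untreated cell control wells and 0% = no signal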
# Assay Setup: CellTiter-Glo, 60 h, at 10 µM, hits give low values
The label met is reserved for viability strictly under 60%; not met covers values equal to or above it.

Study these solved cases before continuing.
# input Please indicate whether the reported viability of `COc1ccc2cc1Oc1ccc(cc1)C[C@H]1c3c(cc4c(c3Oc3cc5c(cc3OC)CCN(C)[C@@H]5C2)OCO4)CCN1C` is strictly below 60%.
# output met

# input Please indicate whether the reported viability of `NC(=O)c1cccc(N)c1` is strictly below 60%.
# output not met

# input Please indicate whether the reported viability of CC[C@@]1([C@@H]2O[C@@H]([C@H]3O[C@@](O)(CO)[C@H](C)C[C@@H]3C)C[C@@H]2C)CC[C@H]([C@]2(C)CC[C@]3(C[C@H](O)[C@@H](C)[C@@H]([C@@H](C)[C@@H](OC)C(C)C(=O)O)O3)O2)O1 (stereo partly specified) is strictly below 60%.
# output not met

New cases:
# input Please indicate whether the reported viability of C[C@@H]1CC2C3CCC4=CC(=O)C=CC4(C)[C@@]3(F)[C@@H](O)CC2(C)[C@@]1(O)C(=O)CO (stereo partly specified) is strictly below 60%.
# output not met

# input Please indicate whether the reported viability of CC(=O)N[C@H]1C(O[C@@H]2O[C@H](C[C@@H](O)[C@H]3O[C@@H](N4CCC(=O)NC4=O)[C@H](O)[C@@H]3O)[C@H](O)[C@H](O)[C@H]2NC(=O)/C=C/CCCCCCCCCCC(C)C)OC(CO)[C@@H](O)[C@@H]1O (stereo partly specified) is strictly below 60%.
# output met

====

# Assay Remarks: growth suppression of PTEN-null HCT116 cells, cell-based, validation, diverse DP compound set (AID 999);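 note: 100% = median luminescence of untreated cell control wells and 0% = no signal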
# Assay Setup: CellTiter-Glo, 60 h, at 10 µM, hits give low values
Listed next: entries and their corresponding viability.
Your answer should be a plain number; it is taken to be in %.

# input Suppose we examine the compound `O=c1c(-c2ccc(O)cc2)coc2cc(O)cc(O)c12` ; what viability value has been reported?
# output 87.8

# input Suppose we examine the compound `COc1ccc2cc([C@H](C)C(=O)O)ccc2c1` ; what viability value has been reported?
# output 85.6

# input Suppose we examine the compound `CO/N=C(\C(=O)N[C@@H]1C(=O)N2C(C(=O)O)=C(COC(C)=O)CS[C@H]12)c1csc(N)n1` ; what viability value has been reported?
# output 89.4

# input Suppose we examine the compound `CC1=C(/C=C/C(C)=C/C=C/C(C)=C/C=C/C=C(C)/C=C/C=C(C)/C=C/C(=O)[C@]2(C)C[C@@H](O)CC2(C)C)C(C)(C)C[C@H](O)C1` ; what viability value has been reported?
# output 80.7

# input Suppose we examine the compound `Cc1ccc(Cl)c(Nc2ccccc2C(=O)O)c1Cl` ; what viability value has been reported?
# output 98.1

# input Suppose we examine the compound `CN(C)c1ccc(/C=C2\C(=O)Nc3ccccc32)cc1` ; what viability value has been reported?
# output 86.2

New cases:
# input Suppose we examine the compound CN1CCN(C2Cc3ccccc3Sc3ccc(S)cc32)CC1 (stereo unspecified) ; what viability value has been reported?
# output 50.3

# input Suppose we examine the compound `CC[n+]1c(-c2ccccc2)c2cc(N)ccc2c2ccc(N)cc21` ; what viability value has been reported?
# output 20.1

# input Suppose we examine the compound `O=C(c1ccccc1)c1ccccc1` ; what viability value has been reported?
# output 100

# input Suppose we examine the compound `COc1cc([C@@H]2c3cc4c(cc3[C@H](O)[C@H]3COC(=O)[C@H]23)OCO4)cc(OC)c1OC` ; what viability value has been reported?
# output 24.6

# input Suppose we examine the compound CC(C)NCC(O)COc1cccc2ccccc12 (stereo unspecified) ; what viability value has been reported?
# output 89.1

# input Suppose we examine the compound COC(=O)C1=C(C)NC(C)=C(C(=O)OCCNCc2ccccc2)C1c1cccc([N+](=O)[O-])c1 (stereo unspecified) ; what viability value has been reported?
# output 65.3

# input Suppose we examine the compound `COc1cc2c(c(OC)c1OC)-c1ccc(OC)c(=O)cc1[C@@H](NC(C)=O)CC2` ; what viability value has been reported?
# output 32.5

# input Suppose we examine the compound `CC(C)CC(=O)N[C@H](C(=O)N[C@H](C(=O)N[C@@H](CC(C)C)[C@@H](O)CC(=O)N[C@@H](C)C(=O)N[C@@H](CC(C)C)[C@@H](O)CC(=O)O)C(C)C)C(C)C` ; what viability value has been reported?
# output 98.2

# input Suppose we examine the compound Nc1nc2ncc(CNc3ccc(C(=O)NC(CCC(=O)O)C(=O)O)cc3)nc2c(=O)[nH]1 (stereo unspecified) ; what viability value has been reported?
# output 99.5

# input Suppose we examine the compound `[O][C@H]1[C@@H](O)[C@@H](CO)O[C@@H](O[C@@H]2[C@@H]3OC[C@H]2O[C@H](O[C@@H]2[C@@H](O)[C@H](C[C@@H]4[C@@H]5OC[C@H]4O[CH][C@@H]5O)O[C@H](CO)[C@@H]2OS(=O)(=O)O)[C@@H]3OS(=O)(=O)O)[C@@H]1O` ; what viability value has been reported?
# output 100

# input Suppose we examine the compound `CCOC(=O)c1c(N)sc(C)c1-c1ccccc1` ; what viability value has been reported?
# output 105

# input Suppose we examine the compound `COc1ccc(Cl)cc1C(=O)NCCc1ccc(S(=O)(=O)NC(=O)NC2CCCCC2)cc1` ; what viability value has been reported?
# output 107

# input Suppose we examine the compound `CCCC[C@@H](C=O)NC(=O)[C@H](CC(C)C)NC(=O)[C@H](CC(C)C)NC(C)=O` ; what viability value has been reported?
# output 15.1

# input Suppose we examine the compound `CC1(C)CCC[C@@](C)([C@H]2CC[C@]3(C)[C@@H]2[C@H](O)C[C@@H]2[C@@]4(C)CC[C@H](O)C(C)(C)[C@@H]4[C@@H](O)C[C@]23C)O1` ; what viability value has been reported?
# output 100

# input Suppose we examine the compound `CCN(CC)C(=S)SSC(=S)N(CC)CC` ; what viability value has been reported?
# output 89.6

====

Listed next: entries and their corresponding viability.
# Assay Remarks: growth suppression of PTEN-null HCT116 cells, cell-based, validation, diverse DP compound set (AID 999);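 note: 100% = median luminescence of untreated cell control wells and 0% = no signal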
# Assay Setup: CellTiter-Glo, 60 h, at 10 µM, hits give low values
The source made the active and inactive calls.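 The calls were made as follows: active = viability at or below 21.59%, 3 SD under the median of tested compounds; inactive = the rest.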

Solved entries:
# input Suppose we examine the molecule `Cc1cc2c(C(C)C)c(O)c(O)c(C=O)c2c(O)c1-c1c(C)cc2c(C(C)C)c(O)c(O)c(C=O)c2c1O` ; what viability value has been reported?
# output 13% (active)

# input Suppose we examine the molecule C[C@@H]1CC[C@]2(C(=O)O)CC[C@]3(C)C(=CCC4[C@@]5(C)C[C@@H](O)[C@H](O)[C@@](C)(CO)C5CC[C@]43C)C2[C@H]1C (stereo not given in full) ; what viability value has been reported?
# output 94.3% (inactive)

# input Suppose we examine the molecule `COc1cc(Cc2cnc(N)nc2N)cc(OC)c1OC` ; what viability value has been reported?
# output 102% (inactive)

# input Suppose we examine the molecule `C=CCc1ccc(O)c(-c2cc(CC=C)ccc2O)c1` ; what viability value has been reported?
# output 98.7% (inactive)

New cases:
# input Suppose we examine the molecule `C[C@H]1c2cccc(O)c2C(O)=C2C(=O)[C@]3(O)C(O)=C(C(N)=O)C(=O)[C@@H](N(C)C)[C@@H]3[C@@H](O)[C@@H]21` ; what viability value has been reported?
# output 90.5% (inactive)

====

# Assay Remarks: growth suppression of PTEN-null HCT116 cells, cell-based, validation, diverse DP compound set (AID 999);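 note: 100% = median luminescence of untreated cell control wells and 0% = no signal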
# Assay Setup: CellTiter-Glo, 60 h, at 10 µM
Active and inactive are the calls of the source.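 How the source made its calls: active means viability at or below 21.59%, 3 SD under the median of tested compounds; inactive means the rest.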
Tick one outcome: active, inactive

# input Please indicate how the test categorized CC1COC2=C1C(=O)C(=O)c1c2ccc2c1CCCC2(C)C (stereo not given) .
# output active

# input Please indicate how the test categorized CNCCC(Oc1ccc(C(F)(F)F)cc1)c1ccccc1 (stereo not given) .
# output inactive

# input Please indicate how the test categorized `COc1c(C)c2c(c(O)c1C/C=C(\C)CCC(=O)O)C(=O)OC2` .
# output inactive

New cases:
# input Please indicate how the test categorized `CC(C)C[C@H]1C(=O)N2CCC[C@H]2[C@]2(O)O[C@](NC(=O)[C@@H]3C=C4c5cccc6[nH]c(Br)c(c56)C[C@H]4N(C)C3)(C(C)C)C(=O)N12` .
# output inactive

# input Please indicate how the test categorized `O=C(O)c1ccccc1O` .
# output inactive
